- Tested on: CD2F1 mice, L1210 leukemia ip, survival T/C
- ASSAY: NCI In Vivo Anticancer Drug Screen. Data for tumor model L1210 Leukemia (intraperitoneal) in CD2F1 (CDF1) mice
- CONDITION NOTES: endpoint: mean survival time; dose: 200.0 mg/kg/injection; schedule: Q04DX003 (ip); vehicle: saline; higher = longer survival
Inconclusive results and toxic doses are left out.
Recorded T/C values for a group of molecules are listed next.

Some molecules with recorded T/C:
COc1nc(NC(C)C)nc(NC(C)C)n1	100 % of control
COC1C(O)C(O)C(O)C(O)C1O (configuration not stated)	92 % of control
O=Cc1cc(Cl)cc(Cl)c1O.O=Cc1cc(Cl)cc(Cl)c1O.[Co]	100 % of control
CC(=O)N1CCCC2=C1CCCCCC2	95 % of control
O=C(O)C1CC1.[Ag]	93 % of control

Query (molecule): O=P(O)(O)c1ccccc1 (tested in a mixture with another compound) ; field requested: T/C
91 % of control

Query (molecule): CCCCCCCCCCC(N)C(=O)O (configuration not stated) ; field requested: T/C
97 % of control
